// reported nonsense suppression per item
B1: tRNA (parent)
chain: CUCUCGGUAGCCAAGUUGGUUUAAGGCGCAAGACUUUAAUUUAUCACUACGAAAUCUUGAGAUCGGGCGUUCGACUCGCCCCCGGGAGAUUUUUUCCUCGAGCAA

# Variants of: B1
# ASSAY_COMMENT: nonsense suppression (GFP-seq) (ratio to wild type); higher = more function; SUP4oc tRNA, yeast GFP reporter sort-seq
Variants at the floor of the assay were thinned out.

MUTATION_ANNOTATION | nonsense suppression
G6U C80U | ≤ 0.026
G67A U71C A89C | ≤ 0.026
A23U C29U | 0.112
G66A G78A | 0.0402
U20G A30U | 0.444
G28A A31G G73C | ≤ 0.026
G6A U55G | ≤ 0.026
A13C U17G C75A | 1.1
C27G A33U C34G C83G G85A | ≤ 0.026
U21G A33G C34U G65C | ≤ 0.026
C1U G19U G28C U57C G84A | ≤ 0.026
C1A G26C | ≤ 0.026
G25C C27G | ≤ 0.026
G15C A23G G66A | ≤ 0.026
G61A A62C | 0.0863
C11A U58A G69A | ≤ 0.026
C5A A30G | 0.0272
A54G G67C | ≤ 0.026
C11G C56G G84U | ≤ 0.026
C1U A23G C29U C64G | ≤ 0.026
C75A A87G | 0.839
C12G A54G U57G A60U C77U | ≤ 0.026
C34A G69A | ≤ 0.026
C34G C64U | ≤ 0.026
A30C A60U U63A G69C | ≤ 0.026
C12G G25C C75A | 0.482
U4C U71C | ≤ 0.026
A24C A54G | 0.0609
G78A G86A G88C | ≤ 0.026
C64G G85C | ≤ 0.026
U4G G61A C75A | 0.558
C27U A54U | 0.104
G61A U63A | 0.304
U16C G61A U63A | 0.186
U21G C72U C83G | ≤ 0.026
A13U A31U | 0.193
C12U A13U C79U | 0.0331
A24C G26A A30U C80G C81G | ≤ 0.026
G10A A24C G85U | ≤ 0.026
C27G C77G | ≤ 0.026
G7C U35G | ≤ 0.026
A31C U57A | 0.219
